targetDesc: VEGF-165 (Homo sapiens, UniProt P15692-4 P15692-4:27-191)
Sequence (P15692 other isoform, or with tags, fused parts or gaps): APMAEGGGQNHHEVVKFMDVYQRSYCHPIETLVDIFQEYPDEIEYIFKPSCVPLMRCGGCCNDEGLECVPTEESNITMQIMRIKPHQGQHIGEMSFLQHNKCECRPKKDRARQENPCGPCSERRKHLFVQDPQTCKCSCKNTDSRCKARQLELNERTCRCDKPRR
procedureDetails: SPR; previously reported aptamer control
appliedConditions: tags: PeproTech; chain copies: 2 (dimer, concentrations stated in terms of dimer); label: 5' biotin-dT
observedProperty: Kd

Which Kd is listed for TTGCACTCTGTGGGGGTGGACGGGCCGGGTAGATA (ssDNA) [VEGF binding DNA 35] ? > 100 nM

Each recorded value in this set is attributed to patent US20150119254.
